What DES solubility (maximum solubility) was measured for each of the following?
Experiment: Quantification of solubility by visual inspection for undissolved material
Assay type: physicochemical
Conditions: ChCl-urea DES, room temperature

Input: Query (compound): O=C1N2CN3C(=O)N4CN5C(=O)N6CN7C(=O)N8CN9C(=O)N%10CN%11C(=O)N%12CN%13C(=O)N%14CN1C1C2N2CN%15C(=O)N(CN%16C(=O)N(CN%17C(=O)N(CN%18C(=O)N(CN%19C(=O)N(CN%20C(=O)N(CN1C2=O)C%14C%13%20)C%12C%11%19)C%10C9%18)C8C7%17)C6C5%16)C4C3%15 (stereo not drawn) [CB[7]] ; field requested: DES solubility (maximum solubility)
Output: 17 mg/mL

Input: Can you share its DES solubility (maximum solubility)? I mean this compound: OC[C@H]1O[C@@H]2O[C@H]3[C@H](O)[C@@H](O)[C@@H](O[C@H]4[C@H](O)[C@@H](O)[C@@H](O[C@H]5[C@H](O)[C@@H](O)[C@@H](O[C@H]6[C@H](O)[C@@H](O)[C@@H](O[C@H]7[C@H](O)[C@@H](O)[C@@H](O[C@H]1[C@H](O)[C@H]2O)O[C@@H]7CO)O[C@@H]6CO)O[C@@H]5CO)O[C@@H]4CO)O[C@@H]3CO
Output: >500 mg/mL

* * *

Assay: Quantification of solubility by visual inspection for undissolved material
Assay type: physicochemical
Conditions: ChCl-urea DES, room temperature
Measured Metric: DES solubility (maximum solubility)

Input: For the molecule shown here, O=C1N2CN3C(=O)N4CN5C(=O)N6CN7C(=O)N8CN9C(=O)N%10CN%11C(=O)N%12CN1C1C2N2CN%13C(=O)N(CN%14C(=O)N(CN%15C(=O)N(CN%16C(=O)N(CN%17C(=O)N(CN1C2=O)C%12C%11%17)C%10C9%16)C8C7%15)C6C5%14)C4C3%13 (stereo not drawn) [CB[6]] , give the reported DES solubility (maximum solubility).
Output: 1.0 mg/mL

Input: Give its DES solubility (maximum solubility) value. Item: OC[C@H]1O[C@@H]2O[C@H]3[C@H](O)[C@@H](O)[C@@H](O[C@H]4[C@H](O)[C@@H](O)[C@@H](O[C@H]5[C@H](O)[C@@H](O)[C@@H](O[C@H]6[C@H](O)[C@@H](O)[C@@H](O[C@H]7[C@H](O)[C@@H](O)[C@@H](O[C@H]8[C@H](O)[C@@H](O)[C@@H](O[C@H]1[C@H](O)[C@H]2O)O[C@@H]8CO)O[C@@H]7CO)O[C@@H]6CO)O[C@@H]5CO)O[C@@H]4CO)O[C@@H]3CO
Output: >1000 mg/mL

Input: Requested field: DES solubility (maximum solubility). Item: OC[C@H]1O[C@@H]2O[C@H]3[C@H](O)[C@@H](O)[C@@H](O[C@H]4[C@H](O)[C@@H](O)[C@@H](O[C@H]5[C@H](O)[C@@H](O)[C@@H](O[C@H]6[C@H](O)[C@@H](O)[C@@H](O[C@H]7[C@H](O)[C@@H](O)[C@@H](O[C@H]8[C@H](O)[C@@H](O)[C@@H](O[C@H]9[C@H](O)[C@@H](O)[C@@H](O[C@H]1[C@H](O)[C@H]2O)O[C@@H]9CO)O[C@@H]8CO)O[C@@H]7CO)O[C@@H]6CO)O[C@@H]5CO)O[C@@H]4CO)O[C@@H]3CO
Output: >1000 mg/mL
